Consider the following compounds and their measured z-score readings.
- Experimental details: resazurin metabolic signal in A549 cells – cell-based, resazurin fluorescence, 24 h, PK04 Diversity Set, profiling panel (AID 1171); also: test concentration not given here
- Experimental parameters: A549 viability, higher = more signal, called active from +8 up or from −8 down
Give only the figure.

Some solved cases for reference:
Compound	Value
CCCC[C@@H](O)C1=C(COc2ccccc2)C[C@H]2C(=O)N(Cc3ccccc3)C(=O)[C@H]2[C@H]1CO	-0.0959
O=C1O[C@H](c2ccccc2)[C@H](c2ccccc2)N2[C@H]1[C@@H](C(=O)O)[C@]1(C(=O)Nc3ccc(C#CCCO)cc31)[C@H]2c1ccccc1OCCO	-0.0294
COC(=O)[C@@H]1N=C(c2ccc(OCCCO)cc2)O[C@@H]1C	-0.155
CCCCCCc1nc(Cc2cc(OC)c(OC)c(OC)c2)cc2c1[Si](C(C)C)(C(C)C)OC2	1.64
NC(=O)[C@@]1(Cc2ccccc2)COC(c2ccc(OCCCO)cc2)=N1	0.138

Next up:
Recorded z-score for COc1ccc([Si](C)(C)[C@@H]2[C@@H](CCO)O[C@]3(C(=O)N(Cc4ccccc4)c4ccc(N5CCOC5=O)cc43)[C@H]2C)cc1 , please?
-1.94

Ref: PubChem BioAssay
